# System: MDA-MB-231
# assay remarks: NCI tumour cell line growth inhibition, 48 h
Calls of active or inactive are those of the source. Rule as the data show it: active = GI50 up to about 1.1 µM and inactive = higher.
value type: GI50

Here is how some compounds turned out for GI50.
>>> reported_measurement("CC1(C)OCC(C2CCC3(C)C4=CCC5C(C)(C)C(O)CCC5(C)C4CCC23C)CC(O)C1O (stereo not given)")
"18.1 µM (inactive)"
>>> reported_measurement("N=C(N)N/N=C/c1c(-c2ccc(Cl)cc2)nc2sc(Cl)cn12")
"1.82 µM (inactive)"

Query string: Look at this compound and give its reported GI50. "O=C(O)/C(=C\c1ccncc1)c1cccc2ccccc12"
Result string: > 100 µM (inactive)

Query string: Then what about the compound "COc1cc(OC)c2nc(C)c3c(c2c1)SCC3" ?
Result string: 21.1 µM (inactive)

Query string: Same question for COc1cc(O)c2c(=O)cc(C3(OC(C)=O)C=CC(OC4OC(CO)C(O)C(O)C4O)C=C3)oc2c1 (stereo not given) please.
Result string: > 100 µM (inactive)

====

# System: BT-549
# assay remarks: NCI tumour cell line growth inhibition, 48 h
The source made the active and inactive calls. No stated cut-off is given here; in the data, active = GI50 up to about 1.1 µM and inactive = higher.
Answer with one of the outcomes given here: t (active), f (inactive)

>>> assigned_category("O=[N+]([O-])/C(C(Cl)=C(Cl)Cl)=C(/Nc1cccc2cccnc12)n1nnc2ccccc21")
"f"

Query string: What was the test verdict on C=C1C(=O)OC2C3OC(C)(CCC(O)C3COC(C)=O)CC(OC(=O)/C(=C/C)COC(C)=O)C12 (stereo not given) ?
Result string: t

Query string: Param item: CC(C)(C)C(=O)OCOP(=O)(OCOC(=O)C(C)(C)C)OCC1OC(n2ccc(=O)[nH]c2=O)C(N=[N+]=[N-])C1O (stereo not given)
Result string: f

Query string: Thanks! And "Nc1ccc2c(c1)NC(=O)[C@@H]1CCCN1C2=O" ?
Result string: f

Query string: Would you mind doing O=C1NC(c2ccc3ccccc3c2)Nc2ccccc21 (stereo not given) as well?
Result string: f

Query string: Try this molecule too: CCC1(O)C(=O)OCc2c1cc1n(c2=O)Cc2cc3cc4c(cc3nc2-1)OCO4 (stereo not given)
Result string: t

====

Listing of recorded GI50 by entry.
# Test system: A498
# assay remarks: NCI tumour cell line growth inhibition, 48 h
Calls of active or inactive are those of the source. No stated cut-off is given here; in the data, active = GI50 up to about 1.1 µM and inactive = higher.

Below, each entry is followed by its recorded GI50 result.
>>> reported_measurement("Nc1c(C(=O)O)nnc2ccc(Cl)cc12")
"58.6 µM (inactive)"
>>> reported_measurement("CCCc1nc(N)nc(C(=O)Nc2cccc(C(F)(F)F)c2)c1CC")
"> 100 µM (inactive)"
>>> reported_measurement("COc1cc2c(cc1OCc1ccccc1)NC(=S)[C@@H]1CCCN1C2=S")
"> 100 µM (inactive)"
>>> reported_measurement("OCC(O)COCn1cc(Cn2ncc3c(SCc4ccccc4)ncnc32)nn1 (stereo not given)")
"> 100 µM (inactive)"
>>> reported_measurement("NCCN(CCN(C(=O)Nc1ccccc1)c1ccccc1)C(=O)Nc1ccccc1")
"18.3 µM (inactive)"

Query string: # input compound: COc1cc(/C=C2\CCC/C(=C\c3ccc(O)c(OC)c3)C2=O)ccc1O [CYCLOVALONE] ; wanted: its GI50
Result string: 3.99 µM (inactive)

Query string: Follow-up entry: "COc1ccc(/C=C2\C[C@H]3[C@@H]4CCC5=CC(=O)CC[C@]5(C)[C@H]4CC[C@]3(C)C2=O)cc1OC"
Result string: 3.25 µM (inactive)

Query string: Now the compound "Nc1nc(Nc2cc(F)c(Cl)c(F)c2)cc(=O)[nH]1"
Result string: 94.8 µM (inactive)

Query string: # repeat for COc1ccc(CC2C3=C(CCN2C(=O)C2CCC2)CC2(CC3)OCCO2)cc1O (stereo not given)
Result string: 26.7 µM (inactive)

Query string: Lookup "C=C1C(=O)O[C@@H]2[C@H]3O[C@]3(C)CCC=C(C)CC[C@@H]12"
Result string: 7.05 µM (inactive)

====

# Test system: HCC 2998
# assay remarks: NCI tumour cell line growth inhibition, 48 h
Calls of active or inactive are those of the source. Rule as the data show it: active = GI50 up to about 1.1 µM and inactive = higher. Square brackets hold non-standard residues; d marks the D form. Peptide text beside a SMILES is read from it. * marks the point of attachment. ξ: configuration not given here. ξD = NC(CC(=O)O)C(=O)O; Ac3c = NC1(C(=O)O)CC1; Boc = CC(C)(C)OC(=O)*; OtBu = CC(C)(C)O*
Here, each record is paired with measured GI50 data.

A selection of reference data follows.
>>> reported_measurement("COC(=O)NC(=O)c1cn(C2CCCCC2)c(=O)[nH]c1=O")
"> 100 µM (inactive)"
>>> reported_measurement("Oc1ccc(Cl)cc1C1=NC(NCNC2=NC(c3ccccc3)CC(c3cc(Cl)ccc3O)=N2)=NC(c2ccccc2)C1 (stereo not given)")
"> 100 µM (inactive)"
>>> reported_measurement("COC[C@@H](Cc1ccc(OC)c(OC)c1)[C@@H](COC)Cc1ccc(OC)c(OC)c1")
"> 100 µM (inactive)"
>>> reported_measurement("COc1ccccc1CCN1CCN(CCCc2ccccc2)CC1")
"47.3 µM (inactive)"
>>> reported_measurement("O=C1NC(c2ccc3ccccc3c2)Nc2ccccc21 (stereo not given)")
"51.9 µM (inactive)"

Query string: Enter reported GI50 observed with HCC 2998 for COC(=O)C1(NC(=O)C(CC(=O)OC(C)(C)C)NC(=O)OC(C)(C)C)CC1 (stereo not given) (Boc-[ξD](OtBu)-[Ac3c]-OMe)
Result string: > 100 µM (inactive)

====

# Tested on: HCT-15
value type: GI50

Example entries begin here.
>>> reported_measurement("CN(C)/N=N/c1ccc([N+](=O)[O-])cc1C(N)=O")
"> 100 µM"
>>> reported_measurement("CC(C)(C)C(=O)Nc1cccc(-c2ccc[nH]2)n1")
"> 100 µM"
>>> reported_measurement("Nc1ccc(C(=O)NN2C(=O)C(Cl)C2c2cc(Br)ccc2O)cc1 (centres undefined)")
"> 100 µM"

Query string: Fill blank: measured GI50 of the molecule COc1ccc(C(C)NNC(=O)c2cc[n+]([BH2-]C#N)cc2)cc1OC (centres undefined) is ____.
Result string: > 100 µM

Query string: Quick one: "c1ccc(/N=C2\c3ccccc3CN2c2ccccn2)nc1"
Result string: > 100 µM

Query string: Param item: COC1=C(C)C(=O)C2=C(C1=O)C1C3CC4=C(C(=O)C(OC)=C(C)C4=O)C(CNC(=O)C(C)=O)N3C(C#N)C(C2)N1C (centres undefined)
Result string: 0.00603 µM

Query string: Here is the next molecule: "CCOC(=O)NN(C(=O)OCC)C(=C(C1=CCCCC1)N1CCOCC1)N(NC(=O)OCC)C(=O)OCC"
Result string: > 100 µM

Query string: Then CCCCCCCCCCCCCCCCCCNc1ccn(C2OC(COP(=O)(O)OCC3OC(n4cc(F)c(=O)[nH]c4=O)CC3O)C(O)C2O)c(=O)n1 (centres undefined) ?
Result string: 16.3 µM

Query string: Same again, this time with "Nc1nnc(CCC(=O)Nc2cc(Cl)ccc2Cl)n1N"
Result string: > 100 µM

====

# Test system: 786-0
# assay remarks: NCI tumour cell line growth inhibition, 48 h
Calls of active or inactive are those of the source. Rule as the data show it: active = GI50 up to about 1.1 µM and inactive = higher.
Reported GI50 by item:

>>> reported_measurement("CCOc1cc2ccc3c4cc(OC)c(OC)cc4cnc3c2cc1OCC")
"> 100 µM (inactive)"
>>> reported_measurement("COc1cccc(NC(=O)CSc2nnc(-c3ccc(/N=C\\c4ccc(Cl)cc4)cc3)o2)c1")
"24.5 µM (inactive)"
>>> reported_measurement("CC(=O)N1c2ccccc2Sc2cc(C(O)(C(F)(F)F)C(F)(F)F)ccc21")
"> 10 µM (inactive)"
>>> reported_measurement("N#C/C(=C\\c1ccccc1)c1nc(-c2cc3ccccc3oc2=O)cs1")
"53.5 µM (inactive)"
>>> reported_measurement("O=C(O)CCC1(Br)CCCCC(Br)C1=O (stereo unspecified)")
"> 100 µM (inactive)"

Continue with the compound presented below.
Query string: Entry under review: CC(CCC(=O)O)c1ccc(Br)cc1 (stereo unspecified) . Reported GI50?
Result string: > 100 µM (inactive)

====

# Tested on: A498
# assay remarks: NCI tumour cell line growth inhibition, 48 h
The source made the active and inactive calls. Rule as the data show it: active = GI50 up to about 1.1 µM and inactive = higher.
In this exercise, the only acceptable responses are active, inactive

>>> assigned_category("CCC(C)C1NC(=O)C(NC(=O)C(CC(C)C)N(C)C(=O)[C@@H]2C=CCN2C(=O)[C@H](C)O)C(C)OC(=O)[C@H](Cc2ccc(OC)cc2)N(C)C(=O)[C@@H]2CCCN2C(=O)[C@H](CC(C)C)NC(=O)C(C)C(=O)[C@H](C(C)C)OC(=O)CC1O (stereo partly specified)")
"active"
>>> assigned_category("CC/C=C/c1cc2c(cc1O)CCC1C2CC[C@@]2(C)C1CC[C@@H]2O (stereo partly specified)")
"inactive"

Query string: Entry "CCCCCCCCC(=O)NCCN(CCN)C(=O)CCCCCCCC" : call = ?
Result string: inactive

Query string: Then what about the compound COC(CC1(/C=C/O[Si](C(C)C)(C(C)C)C(C)C)C(=O)N(C)c2ccccc21)OC (stereo unspecified) ?
Result string: inactive

Query string: Record: "COc1cc(CCC(=O)O)c2cc3ccccc3cc2c1O"
Result string: inactive

Query string: Another compound to look at: C[C@]12Cc3conc3C(O)=C1CC[C@@H]1C2CC[C@@]2(C)C1CC[C@@H]2O (stereo partly specified)
Result string: inactive

Query string: Do the same for "CN(C)c1ccc(/C=C/c2ccc(S(N)(=O)=O)cc2)cc1" please
Result string: inactive

Query string: Try this compound next: "Cc1cc2cc3c(Cl)c(CCCl)c(C)nc3cc2c(Cl)c1CCCl"
Result string: inactive

Query string: For CC1(c2cccc3ccccc23)OC(=O)c2ccccc21 (stereo unspecified) then?
Result string: inactive

Query string: Record: "O=C1c2scc(-c3ccccc3)c2-n2cccc21"
Result string: inactive

Query string: Record: "COc1cc2c(c(OC)c1OC)[C@@H]1CCCCC[C@@H]1CCC2=O"
Result string: inactive

All figures here come from ChEMBL document CHEMBL1201862.
